# testedOn: T1, cSNK:BSA conjugate (bovine, head-to-tail cyclized; conjugated to BSA carrier)
# T1 construct: also called BSA-cSNK
# procedureText: BLI 2:1 fit, site 2 (kon2); 1.56 nM row
experimentalReadout: kon (M⁻¹ s⁻¹)
Give just the number in M⁻¹ s⁻¹; leave the unit off.

Some binders with known kon results, for comparison:
binder="murine monoclonal antibody 5E3 (antibody, V domains shown, mouse antibody of the 5E3 hybridoma; also called murine 5E3; m5E3) VH: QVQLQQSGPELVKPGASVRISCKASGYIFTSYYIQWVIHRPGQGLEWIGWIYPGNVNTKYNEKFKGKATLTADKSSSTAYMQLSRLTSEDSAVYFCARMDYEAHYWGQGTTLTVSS VL: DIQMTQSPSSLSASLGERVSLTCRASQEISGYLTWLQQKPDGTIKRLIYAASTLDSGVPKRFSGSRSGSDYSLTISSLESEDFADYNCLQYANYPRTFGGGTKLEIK" experimentalreadout=kon valuemeasured=1.42e+07
binder="rehu5E3-IgG4 (antibody, V domains shown, human IgG4/kappa; also called IgG4 rehu version) VH: QVQLQQSGPEVVKPGASVKISCKASGYIFTSYYIQWVIHAPGQGLEWIGWIYPGNVNTKYNEKFKGKATLTADKSSSTAYMELSSLRSEDSAVYFCARMDYEAHYWGQGTLVTVSS VL: DIQMTQSPSSLSASLGDRVTLTCRASQEISGYLTWLQQKPEKAIKRLIYAASTLDSGVPKRFSGSRSGSDYTLTISSLQPEDFADYNCLQYANYPRTFGGGTKLEIK" experimentalreadout=kon valuemeasured=4.44e+06
binder="hu5E3-IgG4 (antibody, V domains shown, human IgG4/kappa; also called humanized 5E3 IgG4) VH: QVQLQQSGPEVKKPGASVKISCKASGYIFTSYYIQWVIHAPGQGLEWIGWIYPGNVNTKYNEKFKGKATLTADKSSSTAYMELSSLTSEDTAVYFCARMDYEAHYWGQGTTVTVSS VL: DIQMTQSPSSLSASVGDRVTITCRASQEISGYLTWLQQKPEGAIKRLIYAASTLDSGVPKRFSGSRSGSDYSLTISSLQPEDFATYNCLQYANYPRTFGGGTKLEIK" experimentalreadout=kon valuemeasured=7.52e+06

Let's switch to this binder now.
Note to self: kon recorded for hu5E3-IgG1 (antibody, V domains shown, human IgG1/kappa; also called humanized 5E3 IgG1; IHA variant) VH: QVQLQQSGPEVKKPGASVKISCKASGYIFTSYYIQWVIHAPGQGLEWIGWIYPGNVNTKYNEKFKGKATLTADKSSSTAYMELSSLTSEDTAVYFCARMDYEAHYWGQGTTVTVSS VL: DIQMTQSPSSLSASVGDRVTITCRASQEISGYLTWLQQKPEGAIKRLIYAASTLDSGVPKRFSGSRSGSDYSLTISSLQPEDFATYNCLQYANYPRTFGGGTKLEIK was 6.56e+06

Recorded values, source patent US20170008955A1.
